- testSystem: recombinant MbtI (Mycobacterium tuberculosis)
- measurementDescription: MbtI enzymatic (fluorimetric) inhibition assay
- Type: biochemical
- measurementSetup: 0.01% (v/v) Triton X-100, PAINS control; read-out: IC50 in the presence of Triton X-100
measurementType: pIC50
# pIC50: negative log10 of molar concentration; output just the value

Could you share which pIC50 value was measured for N#Cc1cccc(-c2ccc(C(=O)O)o2)c1 ? 5.24

---

- testSystem: recombinant MbtI (Mycobacterium tuberculosis, UniProt P9WFX1)
- Sequence (P9WFX1 whole entry): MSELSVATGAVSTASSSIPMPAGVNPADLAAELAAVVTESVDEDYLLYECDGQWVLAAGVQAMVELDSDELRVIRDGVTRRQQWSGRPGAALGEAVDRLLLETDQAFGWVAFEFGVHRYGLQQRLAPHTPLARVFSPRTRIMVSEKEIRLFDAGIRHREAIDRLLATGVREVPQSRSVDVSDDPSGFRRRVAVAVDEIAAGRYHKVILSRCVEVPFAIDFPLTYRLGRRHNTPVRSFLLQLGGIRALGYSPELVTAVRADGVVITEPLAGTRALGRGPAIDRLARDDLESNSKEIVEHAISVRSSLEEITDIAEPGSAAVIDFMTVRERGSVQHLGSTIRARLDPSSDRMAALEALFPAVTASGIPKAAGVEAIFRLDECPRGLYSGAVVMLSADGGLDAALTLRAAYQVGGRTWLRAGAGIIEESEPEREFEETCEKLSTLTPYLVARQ
- measurementDescription: MbtI enzymatic (fluorimetric) inhibition assay
- Type: biochemical
- measurementSetup: 0.1 mg/mL BSA, PAINS control; read-out: IC50 in the presence of BSA
measurementType: pIC50
A value of pIC50 is the negative decimal logarithm of a concentration given in moles per litre.

Would you kindly share the measured pIC50 for N#Cc1cccc(-c2ccc(C(=O)O)o2)c1 [Compound 10, 5-(3-Cyanophenyl)furan-2-carboxylic Acid] ? 5.21

---

measurementType: melting point (°C)
Output spec: scalar in °C, unitless text.

Solved entries (count: 2):
Cc1cccc(-c2ccc(C(=O)O)o2)c1 [Compound 4, 5-(m-Tolyl)furan-2-carboxylic Acid]    147
N#Cc1cccc(-c2ccc(C(N)=O)o2)c1 [Compound 11, 5-(3-Cyanophenyl)furan-2-carboxamide]    202

State the recorded melting point for this entry: O=C(O)c1ccc(-c2cccc(O)c2)o1 [Compound 3] 170

Would you kindly share the measured melting point for CNC(=O)c1cccc(-c2ccc(C(=O)O)o2)c1 [Compound 7] ? 159

---

- testSystem: recombinant MbtI (Mycobacterium tuberculosis)
- measurementDescription: MbtI enzymatic (fluorimetric) inhibition assay
- Format: biochemical
- measurementSetup: 100 mM DTT, PAINS control; read-out: IC50 in the presence of DTT
measurementType: IC50 (µM)
Report as a plain number; the unit µM is understood.

// returns reported IC50 for input N#Cc1cccc(-c2ccc(C(=O)O)o2)c1 7.2

---

- testSystem: recombinant MbtI (Mycobacterium tuberculosis, UniProt P9WFX1)
- measurementDescription: MbtI enzymatic (fluorimetric) inhibition assay
- Assay type: biochemical
- measurementSetup: residual enzymatic activity at 100 μM ligand concentration, 50 μM chorismic acid, 5 mM MgCl2
For each record, check the reported remaining activity at 100 µM: if it is below 40% write MET, else write NOT MET.

Reference set (3 entries):
Cc1cccc(-c2ccc(C(=O)O)o2)c1    NOT MET
Nc1cccc(-c2ccc(C(=O)O)o2)c1    NOT MET
NS(=O)(=O)c1cccc(-c2ccc(C(=O)O)o2)c1    MET

Lab note: confirm whether the reported remaining activity at 100 µM for this molecule is below 40%, equality not counting. molecule: O=C(O)c1ccc(-c2cccc(C(F)(F)F)c2)o1 NOT MET

Take the molecule O=C(O)c1ccc(-c2cccc(O)c2)o1 and say whether its remaining activity at 100 µM is less than 40%. NOT MET

For this molecule, is remaining activity at 100 µM lower than 40%? O=C(O)c1ccc(-c2cccc(Cl)c2)o1 NOT MET

Record O=C(O)c1cccc(-c2ccc(C(=O)O)o2)c1 : is its remaining activity at 100 µM strictly below 40%? MET

Confirm or reject: remaining activity at 100 µM of CNC(=O)c1cccc(-c2ccc(C(=O)O)o2)c1 lies strictly below 40% NOT MET

Check if remaining activity at 100 µM falls below 40% for N#Cc1cccc(-c2ccc(C(=O)O)o2)c1 . MET

Confirm or reject: remaining activity at 100 µM of NC(=O)c1cccc(-c2ccc(C(=O)O)o2)c1 lies strictly below 40% MET
